# tested-target: KRAS WT (Homo sapiens, UniProt P01116+P62937)
# Sequence (P01116 1-169 isoform P01116-2 limits assumed): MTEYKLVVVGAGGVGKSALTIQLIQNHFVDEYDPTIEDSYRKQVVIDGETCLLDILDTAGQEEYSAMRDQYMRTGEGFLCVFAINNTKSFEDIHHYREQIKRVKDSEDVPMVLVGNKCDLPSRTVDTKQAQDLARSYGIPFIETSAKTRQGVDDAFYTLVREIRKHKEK
# Sequence (P62937 whole entry): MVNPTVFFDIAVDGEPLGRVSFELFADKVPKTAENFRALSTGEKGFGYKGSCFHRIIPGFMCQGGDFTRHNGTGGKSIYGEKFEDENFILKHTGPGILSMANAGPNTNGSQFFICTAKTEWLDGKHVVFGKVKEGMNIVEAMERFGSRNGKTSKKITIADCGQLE
# protocol-summary: Ras-Raf disruption / FRET / MOA assay (BRAF RBD)
# Type: biochemical
# measurement-setup: KRAS WT FRET data IC50, Ras-Raf disruption, with Cyclophilin A
pIC50: −log10 of the molar value.
measurement-type: pIC50

• CCn1c(-c2cccnc2[C@H](C)OC)c2c3cc(ccc31)-c1cc(O)cc(c1)C[C@H](NC(=O)[C@H](C(C)C)N(C)C(=O)CN(C)C(=O)[C@@H]1CN1C(C)C)C(=O)N1CCC[C@H](N1)C(=O)OCC(C)(C)C2 (stereo partly shown) = 7.00 to 8.00
• CCn1c(-c2cccnc2[C@H](C)OC)c2c3cc(ccc31)-c1cc(O)cc(c1)C[C@H](NC(=O)[C@H](C(C)C)N(C)C(=O)CN(C)C(=O)[C@H]1N[C@H]1C(F)(F)F)C(=O)N1CCC[C@H](N1)C(=O)OCC(C)(C)C2 = 7.00 to 8.00
• CCn1c(-c2cccnc2[C@H](C)OC)c2c3cc(ccc31)-c1cc(O)cc(c1)C[C@H](NC(=O)[C@H](C(C)C)N(C)C(=O)[C@H]1CCCN1C(=O)[C@H]1CN1)C(=O)N1CCC[C@H](N1)C(=O)OCC(C)(C)C2 = 6.00 to 7.00
• CCn1c(-c2cccnc2[C@H](C)OC)c2c3cc(ccc31)-c1cc(O)cc(c1)C[C@H](NC(=O)[C@H](C(C)C)N1CC[C@@H](NC(=O)[C@@H]3CN3)C1=O)C(=O)N1CCC[C@H](N1)C(=O)OCC(C)(C)C2 = 7.00 to 8.00

---

# tested-target: KRAS G13C (Homo sapiens, UniProt P01116+P62937, G13C)
# Sequence (P01116 1-169 isoform P01116-2 G13C limits assumed): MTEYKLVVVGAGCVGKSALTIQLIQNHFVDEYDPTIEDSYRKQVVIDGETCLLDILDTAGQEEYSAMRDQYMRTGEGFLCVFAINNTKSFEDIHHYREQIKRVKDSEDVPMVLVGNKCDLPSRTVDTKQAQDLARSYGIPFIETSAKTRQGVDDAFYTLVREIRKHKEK
# Sequence (P62937 whole entry): as the sequence (P62937 whole entry) above
# protocol-summary: Ras-Raf disruption / FRET / MOA assay (BRAF RBD)
# Format: biochemical
# measurement-setup: Ras-Raf disruption, with Cyclophilin A; read-out: KRAS G13C FRET data IC50
Reported IC50 by item:
measurement-type: IC50

- CCn1c(-c2cccnc2[C@H](C)OC)c2c3cc(ccc31)-c1cc(O)cc(c1)C[C@H](NC(=O)[C@H](C(C)C)N(C)C(=O)CC1CN(C(=O)[C@H]3CN3)C1)C(=O)N1CCC[C@H](N1)C(=O)OCC(C)(C)C2 [Example 179]: 10 to 100 nM
- CCn1c(-c2cccnc2[C@H](C)OC)c2c3cc(ccc31)-c1cccc(c1)C[C@H](NC(=O)[C@H](C(C)C)N(C)C(=O)[C@H]1C[C@H](N=C=NCCOC)C1)C(=O)N1CCC[C@H](N1)C(=O)OCC(C)(C)C2 [Example 78]: 10 to 100 nM
- CCn1c(-c2cccnc2[C@H](C)OC)c2c3cc(ccc31)-c1cccc(c1)C[C@H](NC(=O)[C@H](C(C)C)N(C)C(=O)[C@H]1C[C@H](N=C=NCc3ccccc3OC)C1)C(=O)N1CCC[C@H](N1)C(=O)OCC(C)(C)C2 [Example 77]: 10 to 100 nM
- CCn1c(-c2cccnc2[C@H](C)OC)c2c3cc(ccc31)-c1cc(O)cc(c1)C[C@H](NC(=O)[C@H](C(C)C)N(C)C(=O)c1ncc(NC(=O)[C@H]3CN3)n1C)C(=O)N1CCC[C@H](N1)C(=O)OCC(C)(C)C2 [Example 84]: < 10 nM
- CCn1c(-c2cccnc2[C@H](C)OC)c2c3cc(ccc31)-c1cc(O)cc(c1)C[C@H](NC(=O)[C@H](C(C)C)N(C)C(=O)[C@H]1CCN(C(=O)[C@H]3CN3)C1)C(=O)N1CCC[C@H](N1)C(=O)OCC(C)(C)C2 (single isomer, unassigned) [Example 43B]: 1000 to 10000 nM
- CCn1c(-c2cccnc2[C@H](C)OC)c2c3cc(ccc31)-c1cc(O)cc(c1)C[C@H](NC(=O)[C@H](C(C)C)N(C)C(=O)[C@@H]1CCN(C(=O)[C@@H]3CN3)[C@@H]1C)C(=O)N1CCC[C@H](N1)C(=O)OCC(C)(C)C2 (atropisomer, axis not shown) [Example 208]: 10 to 100 nM
- CCn1c(-c2cccnc2[C@H](C)OC)c2c3cc(ccc31)-c1cc(O)cc(c1)C[C@H](NC(=O)[C@H](C(C)C)N1CC[C@]3(CCN(C(=O)[C@@H]4N[C@@H]4C4CC4)C3)C1=O)C(=O)N1CCC[C@H](N1)C(=O)OCC(C)(C)C2 [Example 305]: 10 to 100 nM
- CCn1c(-c2cccnc2[C@H](C)OC)c2c3cc(ccc31)-c1cc(O)cc(c1)C[C@H](NC(=O)[C@H](C(C)C)N(C)C(=O)[C@@H]1CCN(C(=O)[C@H]3CN3)C1)C(=O)N1CCC[C@H](N1)C(=O)OCC(C)(C)C2 (atropisomer, axis not shown) [Example 186]: 10 to 100 nM
